Data origin, for the record: the supplement of paper PMC11316812

# System: hTERT-HMEC;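 note: secreted proteins added to cultured cells, EdU pulse at the end, nuclei found by Hoechst imaging, EdU status from nuclear versus surrounding ring intensity ratio, PBS as neutral control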
# MEASUREMENT_NOTES: percentage of EdU-negative (G0-arrested) nuclei per well, 72 h; higher = more G0 arrest
# CONDITION_NOTES: protein concentration 0.357143 µM; reference: sequence is the full UniProt precursor, the tested protein was the secreted form or ectodomain
I'd appreciate it if you could supply percentage of EdU-negative values for the items below.
Answer format: numeric, % implied, no suffix.

So for MGKSASKQFHNEVLKAHNEYRQKHGVPPLKLCKNLNREAQQYSEALASTRILKHSPESSRGQCGENLAWASYDQTGKEVADRWYSEIKNYNFQQPGFTSGTGHFTAMVWKNTKKMGVGKASASDGSSFVVARYFPAGNVVNEGFFEENVLPPKK [Q9H4G4] , the logged percentage of EdU-negative turned out to be 7.6

So for MERLVIRMPFSHLSTYSLVWVMAAVVLCTAQVQVVTQDEREQLYTPASLKCSLQNAQEALIVTWQKKKAVSPENMVTFSENHGVVIQPAYKDKINITQLGLQNSTITFWNITLEDEGCYMCLFNTFGFGKISGTACLTVYVQPIVSLHYKFSEDHLNITCSATARPAPMVFWKVPRSGIENSTVTLSHPNGTTSVTSILHIKDPKNQVGKEVICQVLHLGTVTDFKQTVNKGYWFSVPLLLSIVSLVILLVLISILLYWKRHRNQDRGELSQGVQKMT , the logged percentage of EdU-negative turned out to be 5.8

So for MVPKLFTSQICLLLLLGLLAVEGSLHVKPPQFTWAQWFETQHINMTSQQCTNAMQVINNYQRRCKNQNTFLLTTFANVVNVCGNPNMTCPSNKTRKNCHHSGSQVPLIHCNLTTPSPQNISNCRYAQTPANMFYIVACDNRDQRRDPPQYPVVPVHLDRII , the logged percentage of EdU-negative turned out to be 5.25

So for MAQTNSFFMLISSLMFLSLSQGQESQTELPNPRISCPEGTNAYRSYCYYFNEDPETWVDADLYCQNMNSGNLVSVLTQAEGAFVASLIKESSTDDSNVWIGLHDPKKNRRWHWSSGSLVSYKSWDTGSPSSANAGYCASLTSCSGFKKWKDESCEKKFSFVCKFKN , the logged percentage of EdU-negative turned out to be 5.35
